Experiment: Conjugation of anti-CD98 mAbs with Bcl-xL inhibitor synthons (precipitation, DAR, recovery, aggregation)
Conditions: conjugation with synthon CZ, Method E
Method: Method A. A solution of BOND-BREAKER tris(2-carboxyethyl)phosphine (TCEP) solution (10 mM, 0.017 mL) was added to a solution of antibody (10 mg/mL, […]) preheated to 37° C. The reaction mixture was kept at 37° C. for 1 hour. The solution of reduced antibody was added to a solution of synthon (3.3 mM, 0.160 mL in DMSO) and gently mixed for 30 minutes. […]
ASSAY_ENDPOINT: DAR by MS

The molecule listed as huAb101: "heavy chain variable sequence of huAb101 is provided in SEQ ID NO: 106"; "light chain variable sequence ... in SEQ ID NO: 107" (antibody, V domains shown) VH: EVQLVESGGGLVKPGGSLRLSCATSGFTFIDYYMSWVRQAPGKGLEWLGFIRNKANRYTTEYSASVKGRFTISRDNSKSILYLQMNSLKTEDTAVYYCTRDRPAWFVYWGQGTLVTVSS VL: DIVMTQTPLSLPVTPGEPASISCKSSQSLLYSSNQKNYLAWYLQKPGQSPQLLIYWASTRESGVPDRFSGSGSGTDFTLKISRVEAEDVGVYYCQQYYSYPYTFGGGTKVEIK shows DAR by MS equal to 4.5
